- Test system: giant foxtail
- method: Test B pre/postemergence giant foxtail
- Assay type: in vivo, Setaria faberii
- conditions: Rate 125 g/ha; Preemergence; scale of 0 to 10 where 0 is no effect and 10 is complete control
Form field: Giant foxtail plant response rating (one value per entry).

compound	target under test	Giant foxtail plant response rating
CC(C)N(C(=O)n1oc(=O)n(C2CC2)c1=O)c1ccccc1 [Compound 243]	giant foxtail	10
Cc1ccccc1-n1c(=O)on(C(=O)N(c2cccc(F)c2)C(C)C)c1=O [Compound 269]	giant foxtail	6
CCC(C)N(C(=O)n1oc(=O)n(-c2ccccc2C)c1=O)c1ccc(F)cc1 (centres unmarked) [Compound 239]	giant foxtail	10
CC(C)N(C(=O)n1oc(=O)n(C2CCCC2)c1=O)c1ccc(Cl)cc1 [Compound 282]	giant foxtail	8
COCCOCn1c(=O)on(C(=O)N(c2ccc(F)cc2)C(C)C)c1=O [Compound 258]	giant foxtail	9

====

- Test system: soybean
- method: Test B pre/postemergence soybean
- Format: in vivo, Glycine max
- conditions: Rate 500 g/ha, Postemergence; scale 0 to 10, 0 no effect, 10 complete control
Please use True for Soybean plant response rating under 5 and False for everything else, ties included.

compound	assigned class
CCN(C(=O)n1oc(=O)n(Cc2cccs2)c1=O)C1CCCCC1 [Compound 82]	True
CC(C)N(C(=O)n1oc(=O)n(C2CC2)c1=O)c1ccccc1 [Compound 243]	False
Cc1ccccc1-n1c(=O)on(C(=O)N(c2cccc(F)c2)C(C)C)c1=O [Compound 269]	True
COCCOCn1c(=O)on(C(=O)N(c2ccc(F)cc2)C(C)C)c1=O [Compound 220]	False
CCC(C)N(C(=O)n1oc(=O)n(-c2ccccc2C)c1=O)c1ccc(F)cc1 (stereo not shown) [Compound 239]	True
CC(C)N(C(=O)n1oc(=O)n(CCC2CCCCC2)c1=O)c1ccc(F)cc1 [Compound 257]	True

====

- System: giant foxtail
- method: Test B pre/postemergence giant foxtail
- Format: in vivo, Setaria faberii
- conditions: Preemergence, Rate 62 g/ha; scale 0 to 10 (0 no effect, 10 complete control)
assay metric: Plant response rating, Giant foxtail

molecule	data value
CC(C)N(C(=O)n1oc(=O)n(C2CCC2)c1=O)c1ccc(F)cc1 [Compound 350]	10
CCC(CC)n1c(=O)on(C(=O)N(c2ccc(F)cc2F)C(C)C)c1=O [Compound 353]	9
COCC(C)n1c(=O)on(C(=O)N(c2ccc(F)cc2F)C(C)C)c1=O (stereo not drawn) [Compound 352]	10
CC(C)N(C(=O)n1oc(=O)n(CCl)c1=O)c1ccc(Cl)cc1 [Compound 422]	0
CC(C)N(C(=O)n1oc(=O)n(C2(C)CC2)c1=O)c1ccccc1 [Compound 360]	10
C=CC[Si](C)(C)Cn1c(=O)on(C(=O)N(c2ccc(Cl)cc2)C(C)C)c1=O [Compound 414]	2
CSCCn1c(=O)on(C(=O)N(c2ccccc2)C(C)C)c1=O [Compound 419]	0
CC(C)N(C(=O)n1oc(=O)[nH]c1=O)c1ccc(F)cc1F [Compound 391]	0
CC(C)N(C(=O)n1oc(=O)n(C(C)CCl)c1=O)c1ccccc1 (stereo not drawn) [Compound 411]	10

====

- Test system: sugar beet
- method: Test B pre/postemergence sugar beet
- Assay type: in vivo, Beta vulgaris
- conditions: Preemergence, Rate 62 g/ha; scale 0 to 10 (0 no effect, 10 complete control)
# Lookup of reported Sugarbeets plant response rating keyed by entry

molecule	Sugarbeets plant response rating
CCN(C(=O)n1oc(=O)n(Cc2cccs2)c1=O)C1CCCCC1 [Compound 82]	0
CC(=O)NCn1c(=O)on(C(=O)N(c2ccccc2)C(C)C)c1=O [Compound 621]	0
C=C(C)Cn1c(=O)on(C(=O)N(c2ccc(F)cc2)C(C)C)c1=O [Compound 139]	3
CC(C)N(C(=O)n1oc(=O)n(-c2cnn(C)c2)c1=O)c1ccc(F)cc1 [Compound 98]	0

====

Listing of recorded Soybean plant response rating by entry.
- System: soybean
- method: Test B pre/postemergence soybean
- Assay type: in vivo, Glycine max
- conditions: Preemergence, Rate 62 g/ha; scale of 0 to 10 where 0 is no effect and 10 is complete control
assay metric: Soybean plant response rating

molecule	data value
COCCOCn1c(=O)on(C(=O)N(c2ccc(F)cc2)C(C)C)c1=O [Compound 258]	0
CCC(C)N(C(=O)n1oc(=O)n(-c2ccccc2C)c1=O)c1ccc(F)cc1 (stereo not shown)	0
COCCOCn1c(=O)on(C(=O)N(c2ccc(F)cc2)C(C)C)c1=O [Compound 220]	0
Cc1ccccc1-n1c(=O)on(C(=O)N(c2ccc(-c3ccccc3)cc2)C(C)C)c1=O	0

====

molecules and their reported Plant response rating, Crabgrass
- System: crabgrass
- method: Test B pre/postemergence crabgrass
- Assay type: in vivo, Digitaria sanguinalis
- conditions: Postemergence, Rate 125 g/ha; scale 0 to 10, 0 is no effect, 10 is complete control

molecule	Plant response rating, Crabgrass
CC(C)N(C(=O)n1oc(=O)n(CCCC(F)(F)F)c1=O)c1ccc(F)cc1	3
CC(C)N(C(=O)n1oc(=O)n([C@@H]2C[C@H]2C)c1=O)c1ccc(F)cc1 (relative stereo)	2
CC(C)Cn1c(=O)on(C(=O)N(c2ccc(F)cc2F)C(C)C)c1=O	2
CSCCn1c(=O)on(C(=O)N(c2ccccc2)C(C)C)c1=O	0
CC(C)N(C(=O)n1oc(=O)n(C(C)Cl)c1=O)c1ccc(F)cc1 (centres unmarked)	1

====

Items are presented alongside their recorded Giant foxtail plant response rating.
- Test system: giant foxtail
- method: Test B pre/postemergence giant foxtail
- Format: in vivo, Setaria faberii
- conditions: Preemergence, Rate 62 g/ha; scale of 0 to 10 where 0 is no effect and 10 is complete control

molecule	Giant foxtail plant response rating
CC(C)N(C(=O)n1oc(=O)n(CCC2CCCCC2)c1=O)c1ccc(F)cc1 [Compound 257]	3
CC(C)N(C(=O)n1oc(=O)n(C2CCCC2)c1=O)c1ccc(Cl)cc1 [Compound 282]	8
CCCCCn1c(=O)on(C(=O)N(c2ccc(F)cc2F)C(C)C)c1=O [Compound 636]	9
CCOC(=O)C(C)N(C(=O)n1oc(=O)n(-c2c(C)cccc2C)c1=O)c1ccc(F)cc1 (stereo not drawn) [Compound 244]	0
CC(C)N(C(=O)n1oc(=O)n(C(C)C2=NOCC2)c1=O)c1ccc(F)cc1F (racemic) [Compound 730]	10
Cc1ccccc1-n1c(=O)on(C(=O)N(c2ccc(S(C)(=O)=O)cc2)C(C)C)c1=O [Compound 203]	0
Cc1ccccc1-n1c(=O)on(C(=O)N(c2ccc3ccccc3c2)C(C)C)c1=O [Compound 306]	2
CC(C)N(C(=O)n1oc(=O)n(-c2ccc3ccccc3c2)c1=O)c1ccccc1 [Compound 332]	0
CC(C)N(C(=O)n1oc(=O)n(CCCC#N)c1=O)c1ccccc1 [Compound 674]	6
CCn1ncc(Cn2c(=O)on(C(=O)N(c3ccc(Cl)cc3)C(C)C)c2=O)c1Cl [Compound 684]	7
CC[C@@H](C)n1c(=O)on(C(=O)N(c2ccc(Cl)cc2)C(C)C)c1=O [Compound 665]	9
CCC(C)N(C(=O)n1oc(=O)n(C(C)C)c1=O)c1ccc(F)cc1 (stereo not drawn) [Compound 689]	10

====

- Test system: corn
- method: Test B pre/postemergence corn
- Format: in vivo, Zea mays
- conditions: Preemergence, Rate 125 g/ha; scale of 0 to 10 where 0 is no effect and 10 is complete control
- Experimental: […] At the same time, these crop and weed species were also treated with postemergence applications of test chemicals formulated in the same manner. […] Treated plants and controls were maintained in a greenhouse for twelve to sixteen days, after which all species were compared to controls and visually evaluated. […]
# Plant response rating, Corn per record follows

compound	Plant response rating, Corn
CC(C)N(C(=O)n1oc(=O)n(CCCC(F)(F)F)c1=O)c1ccc(F)cc1	0
CC(C)N(C(=O)n1oc(=O)n(C(C)CCl)c1=O)c1ccccc1 (centres unmarked)	2
CC(C)N(C(=O)n1oc(=O)n(C(C)C#N)c1=O)c1ccc(Cl)cc1 (centres unmarked)	0
CC(C)N(C(=O)n1oc(=O)n(C(C)Cl)c1=O)c1ccc(F)cc1 (centres unmarked)	0
CC(C)N(C(=O)n1oc(=O)n(C(C)CCl)c1=O)c1ccc(Cl)cc1 (centres unmarked)	0
CC(C)N(C(=O)n1oc(=O)n(C)c1=O)c1ccccc1	8
CC(C)N(C(=O)n1oc(=O)n(CC#N)c1=O)c1ccc(Cl)cc1	0
CCC(C)N(C(=O)n1oc(=O)n(C(C)C)c1=O)c1ccc(F)cc1 (centres unmarked)	6

====

Quick list: Plant response rating (0 to 10; 0 is no effect, 10 is complete control), Blackgrass per entry.
- Tested on: blackgrass
- method: Test B pre/postemergence blackgrass
- Type: in vivo, Alopecurus myosuroides
- conditions: Rate 250 g/ha; Postemergence
assay metric: Plant response rating (0 to 10; 0 is no effect, 10 is complete control), Blackgrass

chem smiles	data value
Cc1ccccc1-n1c(=O)on(C(=O)N(c2ccc(S(C)(=O)=O)cc2)C(C)C)c1=O	0
CC(C)N(C(=O)n1oc(=O)n(CCC2CCCCC2)c1=O)c1ccc(F)cc1	1
CC(C)N(C(=O)n1oc(=O)n(C2CC2)c1=O)c1ccccc1	9
COCCOCn1c(=O)on(C(=O)N(c2ccc(F)cc2)C(C)C)c1=O	7

Data provenance is patent US6737383B1.
